- Test system: Platelet-derived growth factor receptor alpha (Homo sapiens), P16234 [V561D]
- Sequence (P16234 whole entry V561D): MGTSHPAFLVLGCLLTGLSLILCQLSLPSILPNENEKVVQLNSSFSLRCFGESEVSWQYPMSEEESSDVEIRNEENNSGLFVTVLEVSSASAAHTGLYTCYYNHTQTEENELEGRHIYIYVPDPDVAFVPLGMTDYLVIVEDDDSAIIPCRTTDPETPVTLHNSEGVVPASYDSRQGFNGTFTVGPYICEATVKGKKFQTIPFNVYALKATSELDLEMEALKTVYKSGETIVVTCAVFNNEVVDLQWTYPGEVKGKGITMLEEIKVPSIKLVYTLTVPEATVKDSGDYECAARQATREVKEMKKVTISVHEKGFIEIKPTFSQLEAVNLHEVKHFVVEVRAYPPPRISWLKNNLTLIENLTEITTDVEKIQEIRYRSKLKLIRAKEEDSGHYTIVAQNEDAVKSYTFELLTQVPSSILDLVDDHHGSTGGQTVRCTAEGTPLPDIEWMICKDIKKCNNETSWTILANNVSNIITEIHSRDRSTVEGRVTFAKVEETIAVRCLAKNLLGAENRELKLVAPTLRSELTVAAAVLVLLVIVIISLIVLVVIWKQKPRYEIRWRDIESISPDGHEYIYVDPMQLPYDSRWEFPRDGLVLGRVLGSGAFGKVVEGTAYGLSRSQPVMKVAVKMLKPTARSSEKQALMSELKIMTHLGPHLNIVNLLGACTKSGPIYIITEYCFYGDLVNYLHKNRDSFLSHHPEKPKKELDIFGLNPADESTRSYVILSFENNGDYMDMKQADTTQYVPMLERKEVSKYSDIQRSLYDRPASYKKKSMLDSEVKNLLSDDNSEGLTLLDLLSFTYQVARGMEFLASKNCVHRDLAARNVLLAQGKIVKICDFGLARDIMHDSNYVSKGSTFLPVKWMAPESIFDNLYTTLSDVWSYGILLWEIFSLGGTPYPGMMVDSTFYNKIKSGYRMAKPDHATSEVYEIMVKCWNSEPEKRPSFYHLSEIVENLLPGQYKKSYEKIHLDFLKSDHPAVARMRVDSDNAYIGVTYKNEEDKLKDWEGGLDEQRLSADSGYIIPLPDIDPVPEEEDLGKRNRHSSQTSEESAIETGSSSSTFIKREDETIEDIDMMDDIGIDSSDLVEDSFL
- statedConditions: at 0.1 µM
endpointLabel: inhibition

[
  {
    "sampleSmiles": "O=C(O[C@H]1CN[C@H](C#Cc2cc3ncnc(Nc4ccc(OCc5cccc(F)c5)c(Cl)c4)c3s2)C1)N1CCOCC1",
    "result": "8.32%"
  },
  {
    "sampleSmiles": "CS(=O)(=O)CCNCc1ccoc1-c1ccc2ncnc(Nc3ccc(OCc4ccccc4)cc3)c2c1",
    "result": "1.67%"
  },
  {
    "sampleSmiles": "NC(=O)c1ccc2c(-c3ccnc(NCCCO)n3)c(-c3ccc(F)cc3)nn2c1",
    "result": "4.18%"
  },
  {
    "sampleSmiles": "CCN1CCC(C(=O)Nc2n[nH]c3nnc(-c4cccc(F)c4F)cc23)CC1",
    "result": "-0.48%"
  },
  {
    "sampleSmiles": "Cc1cc(O)cc(C)c1/C=C/c1cncc(C(=O)OC(C)(C)C)c1",
    "result": "14.4%"
  },
  {
    "sampleSmiles": "CS(=O)(=O)Nc1ccc(-c2ccc3c(NC(=O)C4CC4)n[nH]c3c2)cc1",
    "result": "5.95%"
  },
  {
    "sampleSmiles": "COc1ccccc1-c1cc(/C=C2\\C(=O)Nc3ncc(Br)cc32)cc(Br)c1O",
    "result": "2.82%"
  },
  {
    "sampleSmiles": "CC1(C)CC(n2cnc(-c3ccc(F)cc3)c2-c2ccnc(N)n2)CC(C)(C)N1",
    "result": "-0.6%"
  },
  {
    "sampleSmiles": "CCOc1ccc2c(-c3ccnc(Nc4cc(OC)cc(C(F)(F)F)c4)n3)cnn2n1",
    "result": "6.9%"
  }
]
